# TARGET OR SYSTEM: Mitogen-activated protein kinase 14 (Homo sapiens, UniProt Q16539)
# Sequence (Q16539 whole entry): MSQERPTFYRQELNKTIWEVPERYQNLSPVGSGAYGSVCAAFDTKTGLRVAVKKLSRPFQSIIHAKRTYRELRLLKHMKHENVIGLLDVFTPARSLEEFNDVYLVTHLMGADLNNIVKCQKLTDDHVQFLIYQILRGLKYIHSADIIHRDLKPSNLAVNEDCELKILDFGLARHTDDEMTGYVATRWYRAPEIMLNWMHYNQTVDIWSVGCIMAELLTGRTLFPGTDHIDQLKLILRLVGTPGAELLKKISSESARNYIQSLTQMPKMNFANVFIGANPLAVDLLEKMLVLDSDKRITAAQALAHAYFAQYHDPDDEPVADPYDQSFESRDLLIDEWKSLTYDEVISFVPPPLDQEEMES
# ASSAY METHOD TEXT: Inhibition of p38alpha
QUANTITY MEASURED: IC50 (nM)

(I) Cc1ccc(NC(=O)c2cc(F)cc(N3CCOCC3)c2)cc1Nc1ncnn2cc(C(=O)N(C)C)c(C)c12
(II) CCNC(=O)c1cn2ncnc(Nc3cc(NC(=O)c4cccc(-n5cccn5)c4)ccc3C)c2c1C
(III) CCNC(=O)c1cn2ncnc(Nc3cc(NC(=O)c4cccc(N5CCN(C)CC5)c4)ccc3C)c2c1C
**Query** List the molecules shown above again, sorted by falling IC50 values. Submit the labels in the order that the ranking request calls for.
**Result** III, II, I
(III: 924 nM, II: 123 nM, I: 63 nM)

----------
# TARGET OR SYSTEM: Mitogen-activated protein kinase 14 (Homo sapiens)
# ASSAY METHOD TEXT: Inhibition of p38alpha
QUANTITY MEASURED: Ki (nM)

{"CHEMICAL STRUCTURE": "CCNC(=O)c1cn2ncnc(Nc3cc(NC(=O)c4cc(F)cc(N5CCOCC5)c4)ccc3C)c2c1C", "Ki, nM": 0.42}

(I) CCNC(=O)c1cn2ncnc(Nc3cc(NC(=O)c4cccc(N5CCOCC5)c4)ccc3C)c2c1C
(II) Cc1ccc(NC(=O)c2ccc(C#N)cc2)cc1Nc1ncnn2cc(C(=O)N[C@@H](C)c3ccccc3)c(C)c12
(III) Cc1ccc(NC(=O)c2cc(F)cc(N3CCOCC3)c2)cc1Nc1ncnn2cc(C(=O)N[C@@H](C)c3ccccc3)c(C)c12
**Query** Put the entries in order of Ki, starting with the largest number. State the ranking by listing the labels in the requested order.
**Result** II, I, III
(II: 3.4 nM, I: 0.98 nM, III: 0.54 nM)

----------
# TARGET OR SYSTEM: Mitogen-activated protein kinase 14 (Homo sapiens, UniProt Q16539)
# ASSAY METHOD TEXT: Inhibition of p38alpha
QUANTITY MEASURED: IC50 (nM)

See these solved cases before continuing.
{"COMPOUND": "CCNC(=O)c1cn2ncnc(Nc3cc(NC(=O)c4ccnc(N5CCOCC5)c4)ccc3C)c2c1C", "IC50 [nM]": 2}
{"COMPOUND": "Cc1ccc(NC(=O)c2cccc(C(F)(F)F)c2)cc1Nc1ncnn2cc(C(=O)N[C@@H](C)c3ccccc3)c(C)c12", "IC50 [nM]": 32}
{"COMPOUND": "CCOC(=O)c1cn2ncnc(Nc3cc(NC(=O)c4cc(F)cc(N5CCOCC5)c4)ccc3C)c2c1C", "IC50 [nM]": 2}

(1) Cc1ccc(NC(=O)c2cc(F)cc(N3CCOCC3)c2)cc1Nc1ncnn2cc(C(=O)O)c(C)c12
(2) CNC(=O)c1cn2ncnc(Nc3cc(NC(=O)c4cc(F)cc(N5CCOCC5)c4)ccc3C)c2c1C
**Query** Rank 1 against 2 by their IC50 values and give the higher one. Refer to your chosen item by its label in the answer.
**Result** 2

(A) Cc1ccc(NC(=O)c2cc(F)cc(N3CCOCC3)c2)cc1Nc1ncnn2cc(C(N)=O)c(C)c12
(B) CCCNC(=O)c1cn2ncnc(Nc3cc(NC(=O)c4cc(F)cc(N5CCOCC5)c4)ccc3C)c2c1C
**Query** A or B : whose IC50 is greater? Answer format: the label of the selected item.
**Result** B

(A) Cc1cccc(C(=O)Nc2ccc(C)c(Nc3ncnn4cc(C(=O)N[C@@H](C)c5ccccc5)c(C)c34)c2)c1
(B) CCNC(=O)c1cn2ncnc(Nc3cc(NC(=O)c4cccc(N5CCCC5=O)c4)ccc3C)c2c1C
(C) COC[C@H](C)NC(=O)c1cn2ncnc(Nc3cc(NC(=O)c4cc(F)cc(N5CCOCC5)c4)ccc3C)c2c1C (stereo in doubt; 16)
**Query** Rank by IC50 (largest to smallest). Write the labels in rank order as requested.
**Result** A, B, C

----------
# TARGET OR SYSTEM: Mitogen-activated protein kinase 14 (Homo sapiens, UniProt Q16539)
# ASSAY METHOD TEXT: Inhibition of p38alpha
pIC50: −log10 of the molar value.
QUANTITY MEASURED: pIC50

// known answers, use as guide
{"CHEMICAL STRUCTURE": "Cc1ccc(NC(=O)c2ccccc2)cc1Nc1ncnn2cc(C(=O)N[C@@H](C)c3ccccc3)c(C)c12", "pIC50": 7.72}
{"CHEMICAL STRUCTURE": "COC[C@H](C)NC(=O)c1cn2ncnc(Nc3cc(NC(=O)c4cccc(N5CCOCC5)c4)ccc3C)c2c1C", "pIC50": 7.92}

(P) Cc1ccc(NC(=O)c2ccncc2)cc1Nc1ncnn2cc(C(=O)N[C@@H](C)c3ccccc3)c(C)c12
(Q) Cc1ccc(NC(=O)c2cc(F)cc(N3CCOCC3)c2)cc1Nc1ncnn2ccc(C)c12
**Query** Of the pair P and Q , name the member with the lesser recorded pIC50. Reply briefly: the label of your chosen item.
**Result** Q

----------
# TARGET OR SYSTEM: Mitogen-activated protein kinase 14 (Homo sapiens)
# ASSAY METHOD TEXT: Inhibition of p38alpha
QUANTITY MEASURED: IC50 (nM)

{"COMPOUND": "COC[C@H](C)NC(=O)c1cn2ncnc(Nc3cc(NC(=O)c4cc(F)cc(N5CCOCC5)c4)ccc3C)c2c1C (stereo in doubt; 39)", "REPORTED VALUE": 2}

(P) CCNC(=O)c1cn2ncnc(Nc3cc(NC(=O)c4ccc(C#N)cc4)ccc3C)c2c1C
(Q) CCNC(=O)c1cn2ncnc(Nc3cc(NC(=O)c4cccc(-n5ccnc5)c4)ccc3C)c2c1C
**Query** Kindly compare P with Q and tell me which has the lower IC50 figure. Kindly give the label for the entry you pick.
**Result** Q
